Provenance of the data: ChEMBL document CHEMBL1136143

test system: Streptococcus; assay: In vitro minimum inhibitory concentration against Streptococcus Species (5 strains, including PRSP); format: functional
Overview of reported MIC across a group of molecules:
Field format: number, assumed µg/mL, no unit text.

Sample records with MIC:
Cc1ccc(Oc2ccc(-c3nc4ccc(C[C@H]5NC(=O)[C@H]([C@@H](C)c6ccccc6)NC(=O)CNC(=O)[C@H](CO)NC(=O)[C@@H]([C@@H](O)[C@@H]6CN=C(N)N6[C@H]6O[C@H](CO)[C@@H](O)[C@H](O)[C@@H]6O)NC(=O)[C@H]([C@H](O)[C@@H]6CN=C(N)N6)NC5=O)cc4o3)cc2)cc1 : 1
C[C@@H](c1ccccc1)[C@@H]1NC(=O)CNC(=O)[C@H](CO)NC(=O)[C@@H]([C@@H](O)[C@@H]2CN=C(N)N2[C@H]2O[C@H](CO)[C@@H](O)[C@H](O)[C@@H]2O)NC(=O)[C@H]([C@H](O)[C@@H]2CN=C(N)N2)NC(=O)[C@@H](Cc2ccc3nc(-c4ccc(Br)cc4)oc3c2)NC1=O : 4
C[C@@H](c1ccccc1)[C@@H]1NC(=O)CNC(=O)[C@H](CO)NC(=O)[C@@H]([C@@H](O)[C@@H]2CN=C(N)N2[C@H]2O[C@H](CO)[C@@H](O)[C@H](O)[C@@H]2O)NC(=O)[C@H]([C@H](O)[C@@H]2CN=C(N)N2)NC(=O)[C@@H](Cc2ccc3nc(-c4cccc(C(C)(C)C)c4)oc3c2)NC1=O : 8

Ask: Report MIC for `C[C@@H](c1ccccc1)[C@@H]1NC(=O)CNC(=O)[C@H](CO)NC(=O)[C@@H]([C@@H](O)[C@@H]2CN=C(N)N2[C@H]2O[C@H](CO)[C@@H](O)[C@H](O)[C@@H]2O)NC(=O)[C@H]([C@H](O)[C@@H]2CN=C(N)N2)NC(=O)[C@@H](Cc2ccc3nc(SCc4ccccc4)oc3c2)NC1=O` please.
Reply: 4

Ask: Look up MIC for this molecule: `C[C@@H](c1ccccc1)[C@@H]1NC(=O)CNC(=O)[C@H](CO)NC(=O)[C@@H]([C@@H](O)[C@@H]2CN=C(N)N2[C@H]2O[C@H](CO)[C@@H](O)[C@H](O)[C@@H]2O)NC(=O)[C@H]([C@H](O)[C@@H]2CN=C(N)N2)NC(=O)[C@@H](Cc2ccc3nc(SCC(=O)c4ccccc4)oc3c2)NC1=O`
Reply: 8

Ask: Quick check: MIC of `C[C@@H](c1ccccc1)[C@@H]1NC(=O)CNC(=O)[C@H](CO)NC(=O)[C@@H]([C@@H](O)[C@@H]2CN=C(N)N2[C@H]2O[C@H](CO)[C@@H](O)[C@H](O)[C@@H]2O)NC(=O)[C@H]([C@H](O)[C@@H]2CN=C(N)N2)NC(=O)[C@@H](Cc2ccc3nc(-c4cccs4)oc3c2)NC1=O` ?
Reply: 16

====

Reported MIC values for a set of molecules
test system: Bacillus cereus; assay: In vitro minimum inhibitory concentration against Bacillus cereus (GC 4561) assay organism; format: functional
Report as a plain number; the unit µg/mL is understood.

Cc1ccc(Oc2ccc(-c3nc4ccc(C[C@H]5NC(=O)[C@H]([C@@H](C)c6ccccc6)NC(=O)CNC(=O)[C@H](CO)NC(=O)[C@@H]([C@@H](O)[C@@H]6CN=C(N)N6[C@H]6O[C@H](CO)[C@@H](O)[C@H](O)[C@@H]6O)NC(=O)[C@H]([C@H](O)[C@@H]6CN=C(N)N6)NC5=O)cc4o3)cc2)cc1 : 8

Ask: Lab note: need MIC with Bacillus cereus for entry `CCN1CCN(C(=O)N[C@@H](C(=O)N[C@@H]2C(=O)N3[C@@H]2SC(C)(C)[C@@H]3C(=O)O)c2ccccc2)C(=O)C1=O` , please look it up.
Reply: 1
